Overview of reported yeast fitness across a group of variants:
B1: tRNA (parent)
chain: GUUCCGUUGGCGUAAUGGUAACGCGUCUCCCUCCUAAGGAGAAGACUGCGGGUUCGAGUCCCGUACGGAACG

- Variants of: B1
- PROCEDURE_DETAILS: yeast fitness relative to wild type (ratio to wild type); higher = fitter; tRNA-Arg(CCU), competitive growth, 37 C, YPD
This sample holds only a part of the variants without activity.

// known answers, use as guide
| CHANGES | RESULT |
| --- | --- |
| C4A C11G G51C | ≤ 0.5 |
| C22A C49G G67A | ≤ 0.5 |
| A20C C34G G67U A69G | ≤ 0.5 |
| G17C U35C G51A C66G | ≤ 0.5 |

Q: What measured yeast fitness goes with C5U U19A G38C C62G G68C ?
A: 0.62

Q: Here is the next variant: G17C C33G U59G A69U
A: 0.665
